system: Downy Brome; assay: post-emergence herbicidal activity, greenhouse; assay type: in vivo; conditions: Table II, 2 WAT, 5.6 kg/h

molecule | post-emergence herbicidal activity index
N#CCN(CP(=O)(Oc1ccccc1)Oc1ccccc1)SSc1ccc2ccccc2c1 [IX] | 0 (0-24% control)
CC(C)SSN(CC#N)CP(=O)(Oc1ccccc1)Oc1ccccc1 [VI] | 2 (50-74% control)
CSSN(CC#N)CP(=O)(Oc1ccccc1)Oc1ccccc1 [VII] | 1 (25-49% control)
N#CCN(CP(=O)(Oc1ccccc1)Oc1ccccc1)SSc1ccc(Cl)cc1 [XI] | 1 (25-49% control)

* * *

Measured post-emergence herbicidal activity index, listed per entry.
tested on: Sugar Beet; assay: post-emergence herbicidal activity, greenhouse; format: in vivo; details: Table II, 4 WAT, 5.6 kg/h

structure | post-emergence herbicidal activity index
N#CCN(CP(=O)(Oc1ccccc1)Oc1ccccc1)SSc1cccc(C(F)(F)F)c1 | 0 (0-24% control)
N#CCN(CP(=O)(Oc1ccccc1)Oc1ccccc1)SSCCc1ccccc1 | 1 (25-49% control)
CSSN(CC#N)CP(=O)(Oc1ccccc1)Oc1ccccc1 | 1 (25-49% control)
CC(C)SSN(CC#N)CP(=O)(Oc1ccccc1)Oc1ccccc1 | 1 (25-49% control)
N#CCN(CP(=O)(Oc1ccccc1)Oc1ccccc1)SCl | 0 (0-24% control)
CC(C)CCSSN(CC#N)CP(=O)(Oc1ccccc1)Oc1ccccc1 | 1 (25-49% control)

* * *

tested on: Morningglory; assay: post-emergence herbicidal activity, greenhouse; type: in vivo; conditions: Table II, 2 WAT, 5.6 kg/h
Measured post-emergence herbicidal activity index, listed per entry.
endpoint: post-emergence herbicidal activity index

compound | endpoint | result
N#CCN(CP(=O)(Oc1ccccc1)Oc1ccccc1)SSc1ccc(Cl)cc1 [XI] | post-emergence herbicidal activity index | 1 (25-49% control)
N#CCN(CP(=O)(Oc1ccccc1)Oc1ccccc1)SSc1ccc2ccccc2c1 [IX] | post-emergence herbicidal activity index | 1 (25-49% control)
CC(C)SSN(CC#N)CP(=O)(Oc1ccccc1)Oc1ccccc1 [VI] | post-emergence herbicidal activity index | 1 (25-49% control)
CSSN(CC#N)CP(=O)(Oc1ccccc1)Oc1ccccc1 [VII] | post-emergence herbicidal activity index | 2 (50-74% control)

* * *

Tested on: Panicum Spp
Assay: post-emergence herbicidal activity, greenhouse
Assay type: in vivo
Conditions: Table II, 2 WAT, 5.6 kg/h
Description: A good grade of top soil is placed in aluminum pans having holes in the bottom and compacted to a depth of 0.95 to 1.27 cm. from the top of the pan. […] The pans are returned to the greenhouse and watered as before and the injury to the plants as compared to the control is observed at approximately two and four weeks as indicated in the tables under WAT and the results recorded. […]
endpoint: post-emergence herbicidal activity index

structure | result
N#CCN(CP(=O)(Oc1ccccc1)Oc1ccccc1)SSc1ccc(Cl)cc1 | 1 (25-49% control)
N#CCN(CP(=O)(Oc1ccccc1)Oc1ccccc1)SSc1ccc2ccccc2c1 | 0 (0-24% control)
CC(C)SSN(CC#N)CP(=O)(Oc1ccccc1)Oc1ccccc1 | 1 (25-49% control)
CSSN(CC#N)CP(=O)(Oc1ccccc1)Oc1ccccc1 | 1 (25-49% control)

* * *

Measured post-emergence herbicidal activity index, listed per entry.
tested on: Soybean; test: post-emergence herbicidal activity, greenhouse; assay type: in vivo; conditions: Table II, 4 WAT, 1.12 kg/h
endpoint: post-emergence herbicidal activity index

structure | result
CC(C)SSN(CC#N)CP(=O)(Oc1ccccc1)Oc1ccccc1 | 0 (0-24% control)
CC(C)CCSSN(CC#N)CP(=O)(Oc1ccccc1)Oc1ccccc1 | 1 (25-49% control)
N#CCN(CP(=O)(Oc1ccccc1)Oc1ccccc1)SCl | 1 (25-49% control)
N#CCN(CP(=O)(Oc1ccccc1)Oc1ccccc1)SSc1cccc(C(F)(F)F)c1 | 1 (25-49% control)
N#CCN(CP(=O)(Oc1ccccc1)Oc1ccccc1)SSCCc1ccccc1 | 0 (0-24% control)
CSSN(CC#N)CP(=O)(Oc1ccccc1)Oc1ccccc1 | 1 (25-49% control)

* * *

tested on: Downy Brome; test: post-emergence herbicidal activity, greenhouse; assay type: in vivo; settings: Table II, 4 WAT, 1.12 kg/h
endpoint: post-emergence herbicidal activity index

structure | endpoint | result
N#CCN(CP(=O)(Oc1ccccc1)Oc1ccccc1)SSc1cccc(C(F)(F)F)c1 | post-emergence herbicidal activity index | 0 (0-24% control)
CC(C)SSN(CC#N)CP(=O)(Oc1ccccc1)Oc1ccccc1 | post-emergence herbicidal activity index | 0 (0-24% control)
N#CCN(CP(=O)(Oc1ccccc1)Oc1ccccc1)SSCCc1ccccc1 | post-emergence herbicidal activity index | 0 (0-24% control)
CC(C)CCSSN(CC#N)CP(=O)(Oc1ccccc1)Oc1ccccc1 | post-emergence herbicidal activity index | 2 (50-74% control)
N#CCN(CP(=O)(Oc1ccccc1)Oc1ccccc1)SCl | post-emergence herbicidal activity index | 0 (0-24% control)
CSSN(CC#N)CP(=O)(Oc1ccccc1)Oc1ccccc1 | post-emergence herbicidal activity index | 0 (0-24% control)

* * *

tested on: Lambsquarters; assay: post-emergence herbicidal activity, greenhouse; assay type: in vivo; conditions: Table II, 4 WAT, 1.12 kg/h
endpoint: post-emergence herbicidal activity index

compound | result
N#CCN(CP(=O)(Oc1ccccc1)Oc1ccccc1)SSCCc1ccccc1 [XII] | 0 (0-24% control)
N#CCN(CP(=O)(Oc1ccccc1)Oc1ccccc1)SCl [I] | 4 (100% control)
CC(C)CCSSN(CC#N)CP(=O)(Oc1ccccc1)Oc1ccccc1 [V] | 1 (25-49% control)
N#CCN(CP(=O)(Oc1ccccc1)Oc1ccccc1)SSc1cccc(C(F)(F)F)c1 [IV] | 2 (50-74% control)
CC(C)SSN(CC#N)CP(=O)(Oc1ccccc1)Oc1ccccc1 [VI] | 3 (75-99% control)
CSSN(CC#N)CP(=O)(Oc1ccccc1)Oc1ccccc1 [VII] | 0 (0-24% control)

* * *

test system: Lambsquarters; assay: post-emergence herbicidal activity, greenhouse; type: in vivo; conditions: Table II, 2 WAT, 1.12 kg/h
endpoint: post-emergence herbicidal activity index

compound | endpoint | result
CC(C)SSN(CC#N)CP(=O)(Oc1ccccc1)Oc1ccccc1 [VI] | post-emergence herbicidal activity index | 3 (75-99% control)
N#CCN(CP(=O)(Oc1ccccc1)Oc1ccccc1)SSc1ccc(Cl)cc1 [XI] | post-emergence herbicidal activity index | 0 (0-24% control)
CSSN(CC#N)CP(=O)(Oc1ccccc1)Oc1ccccc1 [VII] | post-emergence herbicidal activity index | 1 (25-49% control)
N#CCN(CP(=O)(Oc1ccccc1)Oc1ccccc1)SSc1ccc2ccccc2c1 [IX] | post-emergence herbicidal activity index | 0 (0-24% control)

* * *

system: Cocklebur; test: post-emergence herbicidal activity, greenhouse; assay type: in vivo; conditions: Table II, 2 WAT, 1.12 kg/h

molecule | post-emergence herbicidal activity index
N#CCN(CP(=O)(Oc1ccccc1)Oc1ccccc1)SSc1ccc(Cl)cc1 [XI] | 0 (0-24% control)
N#CCN(CP(=O)(Oc1ccccc1)Oc1ccccc1)SSc1ccc2ccccc2c1 [IX] | 0 (0-24% control)
CSSN(CC#N)CP(=O)(Oc1ccccc1)Oc1ccccc1 [VII] | 1 (25-49% control)
CC(C)SSN(CC#N)CP(=O)(Oc1ccccc1)Oc1ccccc1 [VI] | 1 (25-49% control)

* * *

Measured post-emergence herbicidal activity index, listed per entry.
system: Quackgrass; test: post-emergence herbicidal activity, greenhouse; assay type: in vivo; details: Table I, 4 WAT, 11.2 kg/h

structure | post-emergence herbicidal activity index
N#CCN(CP(=O)(Oc1ccccc1)Oc1ccccc1)SSCc1cccc(C(F)(F)F)c1 | 0 (0-24% control)
N#CCN(CP(=O)(Oc1ccccc1)Oc1ccccc1)SSc1cccc(C(F)(F)F)c1 | 0 (0-24% control)
CC(C)SSN(CC#N)CP(=O)(Oc1ccccc1)Oc1ccccc1 | 1 (25-49% control)
N#CCN(CP(=O)(Oc1ccccc1)Oc1ccccc1)SCl | 1 (25-49% control)
CSSN(CC#N)CP(=O)(Oc1ccccc1)Oc1ccccc1 | 1 (25-49% control)
N#CCN(CP(=O)(Oc1ccccc1)Oc1ccccc1)SSC1CCCCC1 | 0 (0-24% control)
CCCCCCCCSSN(CC#N)CP(=O)(Oc1ccccc1)Oc1ccccc1 | 1 (25-49% control)
CC(C)CCSSN(CC#N)CP(=O)(Oc1ccccc1)Oc1ccccc1 | 2 (50-74% control)
N#CCN(CP(=O)(Oc1ccccc1)Oc1ccccc1)SSc1ccc(Cl)cc1 | 2 (50-74% control)
N#CCN(CP(=O)(Oc1ccccc1)Oc1ccccc1)SSc1ccc2ccccc2c1 | 1 (25-49% control)
COc1ccc(SSN(CC#N)CP(=O)(Oc2ccccc2)Oc2ccccc2)cc1 | 1 (25-49% control)
N#CCN(CP(=O)(Oc1ccccc1)Oc1ccccc1)SSCCc1ccccc1 | 3 (75-99% control)
